Taken from PubChem BioAssay AID1645886.

# Target Of Assay: Rap guanine nucleotide exchange factor 4 (Homo sapiens)
# Assay Name: Validation qHTS for antagonist of cAMP-regulated guanine nucleotide exchange factor 4 (EPAC2); note: nearly all actives have a fitted effect of over 40% in size
# Condition Context: EPAC2 Rap1B BODIPY-GDP exchange, fluorescence; series mostly up to 112 µM
In all, about 16,000 compounds went through this assay and about 260 (1.6%) were called active. Roughly 14% stayed inconclusive and do not appear here. Calls come from the whole dose curve; as a rule, active = well fitted inhibition curve with a large enough effect; inconclusive = small, poorly fitted or top-dose-only effect; inactive = no such curve, though single readings can be large or run the other way. The full list was thinned out, with actives kept by preference.
Possible outcomes: active, inactive

| Compound | Class Assignment |
| --- | --- |
| CCC(C)[C@H]1COCCS(=O)(=O)N1Cc1ccc(C)cc1 (stereo partly specified) | active |
| Cc1ccc(-c2ncc(Cl)cc2-c2ccc(S(C)(=O)=O)cc2)cn1 | inactive |
| O=c1c(-c2ccc(F)cc2)nc2cncnc2n1-c1ccccc1 | inactive |
| COc1ccc(F)c(CN2CCC3(CCC(CNC(=O)c4ccn(C)n4)O3)CC2)c1 (stereo unspecified) | inactive |
| COC1(C2=NCCN2)COc2ccccc2O1 (stereo unspecified) | inactive |
| COc1ccc(CCCOC(Cn2ccnc2)c2ccc(OC)cc2)cc1 (stereo unspecified) | inactive |
| COc1ccc(NC(=O)N2CC3(CCN(C(C)=O)CC3)C2)cc1 | inactive |
| COc1ccccc1CN1CC2(CCN(S(=O)(=O)c3ccccc3)CC2)C1 | inactive |
| c1ccc2cc(C3=NCCN3)ccc2c1 | inactive |
| CN(C)CCc1c[nH]c2ccc(Cn3cncn3)cc12 | inactive |
| CC(C)C1=CC2=CC[C@H]3[C@](C)(C(=O)O)CCC[C@]3(C)C2CC1 (stereo partly specified) | inactive |
| COc1cccc(CN2CCC3(CC2)c2ccccc2[C@@H](NC(=O)c2ccccc2OC)[C@@H]3O)c1 | inactive |
| CN(C)c1ccc(/C=C/c2c3ccccc3nc3ccccc23)cc1 | inactive |
| O=C(c1cn(CC2CCCN(Cc3cc4ccccc4s3)C2)nn1)N1CCCC1 (stereo unspecified) | inactive |
| COc1ccc(C(=O)N2CCC3(CCCN(C(c4ccccc4)c4ccccc4)C3)CC2)cc1 | inactive |
| O=C(O)CCCc1ccccc1 | inactive |
| O=C(c1cccc(F)c1)N1CCC2(CC1)CCN(c1ccccc1)CC2 | inactive |
| COCCn1c(=O)c(-c2cccs2)nc2cncnc21 | inactive |
| CS(=O)(=O)Nc1cccc(-c2cncnc2Nc2ccccc2)c1 | inactive |
| COCCn1c(=O)c(CCc2ccccc2)nc2cnc(N3CCNCC3)nc21 | inactive |
| O=C(O)C[C@@H]1NC(=O)[C@H](Cc2ccccc2)NC1=O | inactive |
